B1: LINE1-mini (parent)
chain: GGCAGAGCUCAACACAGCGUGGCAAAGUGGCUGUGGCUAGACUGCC

variants of: B1; experiment: self-cleavage, relative activity (ratio to wild type); higher = more cleavage; in vitro, sequencing; the parent is a self-cleaving ribozyme
Note to self: class = bucket of self-cleavage, per label 0 (below 0.1), label 1 (0.1 to below 0.3), label 2 (0.3 or more)

- MUTANT_NAME: "A26U C45U"
  ASSIGNED_LABEL: "label 2"
- MUTANT_NAME: "G2A A14C"
  ASSIGNED_LABEL: "label 1"
- MUTANT_NAME: "G21A A25G"
  ASSIGNED_LABEL: "label 2"
- MUTANT_NAME: "A12G U38C"
  ASSIGNED_LABEL: "label 0"
- MUTANT_NAME: "A26G C45G"
  ASSIGNED_LABEL: "label 2"
- MUTANT_NAME: "A25G G27U"
  ASSIGNED_LABEL: "label 2"
- MUTANT_NAME: "G21C A25C"
  ASSIGNED_LABEL: "label 2"
- MUTANT_NAME: "G5A U28G"
  ASSIGNED_LABEL: "label 1"
- MUTANT_NAME: "G2C U34A"
  ASSIGNED_LABEL: "label 0"
- MUTANT_NAME: "U20C"
  ASSIGNED_LABEL: "label 2"
- MUTANT_NAME: "G7A C8G"
  ASSIGNED_LABEL: "label 1"
- MUTANT_NAME: "G30C U43G"
  ASSIGNED_LABEL: "label 0"
- MUTANT_NAME: "A24C C46U"
  ASSIGNED_LABEL: "label 2"
- MUTANT_NAME: "G27C G44A"
  ASSIGNED_LABEL: "label 2"
- MUTANT_NAME: "A6G C10A"
  ASSIGNED_LABEL: "label 0"
- MUTANT_NAME: "C15A G21C"
  ASSIGNED_LABEL: "label 1"
- MUTANT_NAME: "G17C G40A"
  ASSIGNED_LABEL: "label 0"
- MUTANT_NAME: "G17C G30C"
  ASSIGNED_LABEL: "label 1"
- MUTANT_NAME: "G29C U32G"
  ASSIGNED_LABEL: "label 1"
- MUTANT_NAME: "A6G C23A"
  ASSIGNED_LABEL: "label 1"
- MUTANT_NAME: "G17U G29U"
  ASSIGNED_LABEL: "label 2"
- MUTANT_NAME: "A16U G17C"
  ASSIGNED_LABEL: "label 1"
- MUTANT_NAME: "U9C A14U"
  ASSIGNED_LABEL: "label 0"
- MUTANT_NAME: "C10G"
  ASSIGNED_LABEL: "label 1"
- MUTANT_NAME: "A11C G27A"
  ASSIGNED_LABEL: "label 1"
- MUTANT_NAME: "A24U A25C"
  ASSIGNED_LABEL: "label 2"
- MUTANT_NAME: "C18A U32C"
  ASSIGNED_LABEL: "label 1"
- MUTANT_NAME: "A14U U34C"
  ASSIGNED_LABEL: "label 1"
- MUTANT_NAME: "G30C U32C"
  ASSIGNED_LABEL: "label 0"
